# Tested on: blackgrass (Aloepecurus myosuroides)
# protocol_text: Preemergence herbicidal activity, blackgrass
# Format: in vivo
# particulars: Rate of Application 0.3 Kg/Ha, examined after 12-17 days
Would you kindly list PREEMERGENCE HERBICIDAL ACTIVITY (% CONTROL) ALOMY for each of these compounds?
Report only the number, with the unit % understood.

Query :: Report PREEMERGENCE HERBICIDAL ACTIVITY (% CONTROL) ALOMY for COCc1nc2c(-n3c(=O)cc(C(F)(F)F)n(C)c3=O)c(F)cc(Cl)c2[nH]1 [Compound 370]
Result :: 90

Query :: Report PREEMERGENCE HERBICIDAL ACTIVITY (% CONTROL) ALOMY for Cn1c(C(F)(F)F)cc(=O)n(-c2c(F)cc(Cl)c3[nH]c(C(F)(F)Cl)nc23)c1=O [Compound 366]
Result :: 0

Query :: Report PREEMERGENCE HERBICIDAL ACTIVITY (% CONTROL) ALOMY for CC(=O)OCc1nc2c(-n3c(=O)cc(C(F)(F)F)n(C)c3=O)c(F)cc(Br)c2o1 [Compound 101]
Result :: 80

Query :: Report PREEMERGENCE HERBICIDAL ACTIVITY (% CONTROL) ALOMY for C=CCOc1nc2c(-n3c(=O)cc(C(F)(F)F)n(C)c3=O)c(F)cc(Br)c2o1 [Compound 110]
Result :: 80

Query :: Report PREEMERGENCE HERBICIDAL ACTIVITY (% CONTROL) ALOMY for CC(C)c1cc2c(Cl)cc(F)c(-n3c(=O)cc(C(F)(F)F)n(C)c3=O)c2o1 [Compound 224]
Result :: 80

Query :: Report PREEMERGENCE HERBICIDAL ACTIVITY (% CONTROL) ALOMY for CC(C)C(=O)OC(C)c1cc2c(Cl)cc(F)c(-n3c(=O)cc(C(F)(F)F)n(C)c3=O)c2o1 (stereo not shown) [Compound 247]
Result :: 85

Query :: Report PREEMERGENCE HERBICIDAL ACTIVITY (% CONTROL) ALOMY for COCc1nc2c(-n3c(=O)cc(C(F)(F)F)n(C)c3=O)c(F)cc(Br)c2o1 [Compound 96]
Result :: 90

Query :: Report PREEMERGENCE HERBICIDAL ACTIVITY (% CONTROL) ALOMY for CCOC(=O)c1cc2c(-n3c(=O)cc(C(F)(F)F)n(C)c3=O)c(F)cc(Cl)c2[nH]1 [Compound 493]
Result :: 75

Query :: Report PREEMERGENCE HERBICIDAL ACTIVITY (% CONTROL) ALOMY for Cn1c(C(F)(F)F)cc(=O)n(-c2c(F)cc(Cl)c3nc(Cc4ccc(Cl)cc4)[nH]c23)c1=O [Compound 383]
Result :: 80

Query :: Report PREEMERGENCE HERBICIDAL ACTIVITY (% CONTROL) ALOMY for Cn1c(C(F)(F)F)cc(=O)n(-c2c(F)cc(Cl)c3nc(Cc4ccccc4)[nH]c23)c1=O [Compound 376]
Result :: 100

Query :: Report PREEMERGENCE HERBICIDAL ACTIVITY (% CONTROL) ALOMY for CCOC(=O)c1cc2c(-n3c(=O)cc(C(F)(F)F)n(C)c3=O)c(F)cc(Cl)c2n1C [Compound 522]
Result :: 75

Query :: Report PREEMERGENCE HERBICIDAL ACTIVITY (% CONTROL) ALOMY for Cn1c(C(F)(F)F)cc(=O)n(-c2c(F)cc(Cl)c3[nH]c(C4CCCCC4)nc23)c1=O [Compound 373]
Result :: 70

Query :: Report PREEMERGENCE HERBICIDAL ACTIVITY (% CONTROL) ALOMY for C#CCOc1nc2c(-n3c(=O)cc(C(F)(F)F)n(C)c3=O)c(F)cc(Br)c2o1 [Compound 106]
Result :: 70

Query :: Report PREEMERGENCE HERBICIDAL ACTIVITY (% CONTROL) ALOMY for CNC(=O)c1cc2c(Cl)ccc(-n3c(=O)cc(C(F)(F)F)n(C)c3=O)c2o1 [Compound 270]
Result :: 65

Query :: Report PREEMERGENCE HERBICIDAL ACTIVITY (% CONTROL) ALOMY for COC(=O)CCc1cc2c(Cl)cc(F)c(-n3c(=O)cc(C(F)(F)F)n(C)c3=O)c2o1 [Compound 263]
Result :: 75

Query :: Report PREEMERGENCE HERBICIDAL ACTIVITY (% CONTROL) ALOMY for Cn1c(C(F)(F)F)cc(=O)n(-c2c(F)cc(Cl)c3nc(CCCc4ccccc4)[nH]c23)c1=O [Compound 380]
Result :: 90

Query :: Report PREEMERGENCE HERBICIDAL ACTIVITY (% CONTROL) ALOMY for CCCc1nc2c(-n3c(=O)cc(C(F)(F)F)n(C)c3=O)c(F)cc(Cl)c2o1 [Compound 26]
Result :: 95

Query :: Report PREEMERGENCE HERBICIDAL ACTIVITY (% CONTROL) ALOMY for CC(=O)N(C(C)=O)c1nc2c(-n3c(=O)cc(C(F)(F)F)n(C)c3=O)c(F)cc(Br)c2o1 [Compound 100]
Result :: 60

Query :: Report PREEMERGENCE HERBICIDAL ACTIVITY (% CONTROL) ALOMY for Cn1c(C(F)(F)F)cc(=O)n(-c2c(F)cc(Br)c3oc(COc4ccc(Cl)cc4)nc23)c1=O [Compound 102]
Result :: 90

Query :: Report PREEMERGENCE HERBICIDAL ACTIVITY (% CONTROL) ALOMY for CC(OC(C)(C)C)c1cc2c(Cl)cc(F)c(-n3c(=O)cc(C(F)(F)F)n(C)c3=O)c2o1 (stereo not shown) [Compound 244]
Result :: 70

Query :: Report PREEMERGENCE HERBICIDAL ACTIVITY (% CONTROL) ALOMY for COC(C)(C)c1cc2c(Cl)ccc(-n3c(=O)cc(C(F)(F)F)n(C)c3=O)c2o1 [Compound 251]
Result :: 90

Query :: Report PREEMERGENCE HERBICIDAL ACTIVITY (% CONTROL) ALOMY for CCc1nc2c(-n3c(=O)cc(C(F)(F)F)n(C)c3=O)c(F)cc(Cl)c2o1 [Compound 25]
Result :: 90

Query :: Report PREEMERGENCE HERBICIDAL ACTIVITY (% CONTROL) ALOMY for CNC(=O)OCCc1cc2c(Cl)cc(F)c(-n3c(=O)cc(C(F)(F)F)n(C)c3=O)c2o1 [Compound 261]
Result :: 80

Query :: Report PREEMERGENCE HERBICIDAL ACTIVITY (% CONTROL) ALOMY for CNC(=O)c1cc2c(Cl)cc(F)c(-n3c(=O)cc(C(F)(F)F)n(C)c3=O)c2o1 [Compound 274]
Result :: 95

Query :: Report PREEMERGENCE HERBICIDAL ACTIVITY (% CONTROL) ALOMY for Cn1c(C(F)(F)F)cc(=O)n(-c2c(F)cc(Cl)c3nc(Cc4ccccc4Cl)[nH]c23)c1=O [Compound 381]
Result :: 90

Query :: Report PREEMERGENCE HERBICIDAL ACTIVITY (% CONTROL) ALOMY for CNC(=O)OC(C)c1cc2c(Cl)cc(F)c(-n3c(=O)cc(C(F)(F)F)n(C)c3=O)c2o1 (stereo not shown) [Compound 249]
Result :: 80

Query :: Report PREEMERGENCE HERBICIDAL ACTIVITY (% CONTROL) ALOMY for Cn1c(C(F)(F)F)cc(=O)n(-c2c(F)cc(Cl)c3c2nc(C(F)(F)F)n3C)c1=O [Compound 399]
Result :: 60

Query :: Report PREEMERGENCE HERBICIDAL ACTIVITY (% CONTROL) ALOMY for Cn1c(C(F)(F)F)cc(=O)n(-c2ccc(Cl)c3cc(-c4ccccc4)oc23)c1=O [Compound 264]
Result :: 0

Query :: Report PREEMERGENCE HERBICIDAL ACTIVITY (% CONTROL) ALOMY for CC(=O)OC(C)(C)c1nc2c(-n3c(=O)cc(C(F)(F)F)n(C)c3=O)c(F)cc(Cl)c2[nH]1 [Compound 371]
Result :: 100

Query :: Report PREEMERGENCE HERBICIDAL ACTIVITY (% CONTROL) ALOMY for COCOC(C)(C)c1cc2c(Cl)cc(F)c(-n3c(=O)cc(C(F)(F)F)n(C)c3=O)c2o1 [Compound 252]
Result :: 100

Query :: Report PREEMERGENCE HERBICIDAL ACTIVITY (% CONTROL) ALOMY for Cn1c(C(F)(F)F)cc(=O)n(-c2c(F)cc(Cl)c3oc(N)nc23)c1=O [Compound 38]
Result :: 30
